target: Cruzipain (Trypanosoma cruzi, UniProt P25779); assay: Inhibition of recombinant Trypanosoma cruzi cruzain using Z-Phe-Arg-7-amido-4-methylcoumarin as substrate preincubated for 2 mins followed by substrate addition by fluorimetric assay
Sequence (P25779 whole entry): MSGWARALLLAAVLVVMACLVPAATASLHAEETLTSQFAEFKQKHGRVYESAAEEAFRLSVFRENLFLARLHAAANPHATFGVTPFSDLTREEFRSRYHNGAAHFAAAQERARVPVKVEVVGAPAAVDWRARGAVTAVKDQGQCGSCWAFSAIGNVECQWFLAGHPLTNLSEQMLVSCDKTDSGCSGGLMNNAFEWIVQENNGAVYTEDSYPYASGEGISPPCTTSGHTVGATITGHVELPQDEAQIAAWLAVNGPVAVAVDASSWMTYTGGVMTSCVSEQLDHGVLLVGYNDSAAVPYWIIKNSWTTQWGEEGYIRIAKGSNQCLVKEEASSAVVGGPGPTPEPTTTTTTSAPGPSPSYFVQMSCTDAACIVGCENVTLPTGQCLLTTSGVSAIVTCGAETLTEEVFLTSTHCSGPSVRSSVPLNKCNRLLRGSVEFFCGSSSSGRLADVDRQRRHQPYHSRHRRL
readout: Ki
Please format your answer as a value with the unit trailing.

Some solved entries appear below for comparison.
{"compound.smiles": "CC[C@@H](C)[C@H](NC(=O)c1ccccc1)C(=O)NC1(C#N)CC1", "Ki": "25100 nM"}
{"compound.smiles": "CC(C)C[C@H](NC(=O)C(C)(C)c1ccccc1)C(=O)NC1(C#N)CC1", "Ki": "158 nM"}
{"compound.smiles": "Cn1nc(C(F)(F)F)cc1C(=O)N[C@@H](Cc1ccccc1)C(=O)NCC#N", "Ki": "501 nM"}
{"compound.smiles": "CC(C)C[C@H](NC(=O)C1(c2ccccc2)CCC1)C(=O)NC1(C#N)CC1", "Ki": "20 nM"}
{"compound.smiles": "N#CC1(NC(=O)C2(NC(=O)c3ccccc3)CCCC2)CC1", "Ki": "12600 nM"}
{"compound.smiles": "CC(C)C[C@H](NC(=O)C1(c2ccccc2)CC1)C(=O)NC1(C#N)CC1", "Ki": "25.1 nM"}

Item `CC(C)(C)OC(=O)N[C@@H](Cc1ccccc1)C(=O)NCC#N` : provide Ki
2510 nM

In one line, give reported Ki of the entry `CC(C)C[C@H](NC(=O)C(F)(F)c1ccccc1)C(=O)NC1(C#N)CC1` .
63.1 nM

Cited source for all entries: ChEMBL document CHEMBL4699568
